Plant response rating (0 to 10 scale), Cocklebur by entry:
# System: cocklebur
# assay_summary: Test B preemergence/postemergence greenhouse plant response rating 0 to 10
# Type: in vivo, Xanthium pensylvanicum
# experimental_conditions: PREEMERGENCE, Rate 200 g/ha
In your answer, state the number alone without any accompanying words.

The following compounds have reported results that may help.
-- ask What Plant response rating (0 to 10 scale), Cocklebur value was documented for this compound, COCOc1cc(-c2nn3c(c2Br)CCCC3)c(F)cc1Cl [Compound 65] ?
-- reply 4

-- ask What Plant response rating (0 to 10 scale), Cocklebur value was documented for this compound, C#CC(C)Oc1cc(-c2nn3c(c2Cl)CCCC3)c(Cl)cc1Cl (centres unmarked) [Compound 74] ?
-- reply 0

-- ask What Plant response rating (0 to 10 scale), Cocklebur value was documented for this compound, Clc1cc(Cl)c(-c2nn3c(c2Cl)CCCC3)cc1OCC1CC1 [Compound 69] ?
-- reply 0

-- ask What Plant response rating (0 to 10 scale), Cocklebur value was documented for this compound, Oc1cc(-c2nn3c(c2Cl)CCCC3)c(Cl)cc1Cl [Compound 68] ?
-- reply 0

As a next step, examine the compound that follows.
-- ask What Plant response rating (0 to 10 scale), Cocklebur value was documented for this compound, CCOC(=O)c1cc(-c2nn3c(c2Cl)CCCC3)c(F)cc1Cl [Compound 78] ?
-- reply 0
